- protocol_text: solvent given as SMILES
- experimental_conditions: in CCCCCCCCO
Response field label takes true (1) when solvation free energy, 298 K is strictly below -7 kcal/mol and false (0) in all other cases.

1) CCCCCCCC :: false (0)
2) Clc1cccc(Cl)c1 :: false (0)
3) c1ccncc1 :: false (0)
4) Clc1cc(Cl)c(Cl)cc1Cl :: true (1)
5) Clc1ccc(C(c2ccc(Cl)cc2)C(Cl)(Cl)Cl)cc1 :: true (1)
6) CCCCC#N :: false (0)
7) Clc1cc(Cl)c(-c2ccccc2)cc1Cl :: true (1)
8) CCCCCOC(C)=O :: false (0)
9) CCO :: false (0)
10) CC(F)F :: false (0)

---

- protocol_text: solvent given as SMILES
- experimental_conditions: in O
# Lookup of reported solvation free energy, 298 K keyed by entry
measure_name: solvation free energy, 298 K

1. CC#N :: -3.92 kcal/mol
2. CC1=CCC2C(C)=CCC(C(C)C)C2C1 (centres undefined) :: -0.38 kcal/mol
3. Clc1cc(-c2c(Cl)cc(Cl)c(Cl)c2Cl)c(Cl)c(Cl)c1Cl :: -4.61 kcal/mol
4. Clc1ccccn1 :: -4.39 kcal/mol
5. CCCCCCCCCCCCCCCCCCC :: 4.38 kcal/mol
6. C=C(C)C1CC=C(C)C(OC(=O)CCC)C1 (centres undefined) :: -3.9 kcal/mol
7. CCOC(C)=O :: -2.95 kcal/mol
8. ClCCOCCCl :: -4.23 kcal/mol
9. CCCCCCCCCCCCOC(=O)c1ccccc1C(=O)OCCCCCCCCCCCC :: -5.92 kcal/mol
10. CCCCCCCCCCCCCCCCCCCCCCC :: 5.07 kcal/mol
11. C=CC(C)(CCC=C(C)C)OC(=O)CC (centres undefined) :: -3.26 kcal/mol
12. Cc1ccc([N+](=O)[O-])cc1 :: -4.96 kcal/mol
13. COc1cccc(O)c1 :: -7.67 kcal/mol
14. CCC(C)OC(C)CC (centres undefined) :: -0.8 kcal/mol
15. O=c1[nH]cc(C(F)(F)F)c(=O)[nH]1 :: -15.5 kcal/mol
16. CC(C)(Cl)Cl :: -0.43 kcal/mol
17. NC(=O)c1ccccc1 :: -11 kcal/mol
18. CC(=O)c1ccccc1 :: -4.58 kcal/mol
19. COc1ccc(C(=O)O)cc1 :: -9.14 kcal/mol
20. CCCCCCOC(=O)c1ccccc1C(=O)OCCCCCC :: -6.78 kcal/mol
21. FC(F)(F)c1ccccc1 :: -0.25 kcal/mol
22. CCSSCC :: -1.54 kcal/mol
23. Clc1cccc(Cl)c1 :: -1.05 kcal/mol
24. CCCCCOC(=O)c1ccccc1C(=O)OCCCCC :: -6.96 kcal/mol
25. CC=C(C)C=CC=C(C)C :: -0.55 kcal/mol
26. CN(CC(F)(F)F)c1ccccc1 :: -1.92 kcal/mol
27. C=C(C)CC(C)(C)C :: 2.01 kcal/mol
28. Cc1c[nH]cn1 :: -10.3 kcal/mol
29. c1cc2cccc3c4cccc5cccc(c(c1)c23)c54 :: -7.83 kcal/mol
30. Clc1cc2c(cc1Cl)Oc1cc(Cl)c(Cl)cc1O2 :: -3.37 kcal/mol
31. COC(C)OC :: -3.26 kcal/mol
32. CCOC(=O)c1ccc(O)cc1 :: -9.2 kcal/mol
33. CC(=O)CCCCC(C)C :: -2.84 kcal/mol
34. CC(C)c1ccccc1 :: -0.34 kcal/mol
35. CC(=O)OC1CC(C)CCC1C(C)C (centres undefined) :: -2.59 kcal/mol
36. C=CC(C)=CCCC(=C)C :: -0.55 kcal/mol
37. CC(=O)OC(C)C :: -2.59 kcal/mol
38. CC(=O)OCC(COC(C)=O)OC(C)=O :: -8.84 kcal/mol
39. C=C(C)CCC :: 1.46 kcal/mol
40. OCc1ccccc1O :: -10.2 kcal/mol
41. Cc1cc(C)c(C)cc1C :: -0.72 kcal/mol
42. COC(OC)(OC)c1ccccc1 :: -4.04 kcal/mol
43. COc1ccc(N)cc1 :: -7.54 kcal/mol
44. COCc1ccc(C(=O)O)cc1 :: -9.89 kcal/mol
45. C#C :: 0 kcal/mol
46. CC1=CC(=O)C(C(C)C)CC1 (centres undefined) :: -4.51 kcal/mol
47. O=[N+]([O-])c1c(Cl)c(Cl)cc(Cl)c1Cl :: -3.77 kcal/mol
48. Nc1ccc(S(=O)(=O)NC(=O)c2ccccc2)cc1 :: -18.1 kcal/mol
49. C#CCC :: -0.16 kcal/mol
50. CC(=O)c1ccncc1 :: -7.62 kcal/mol
51. CCSCC :: -1.46 kcal/mol
52. CCCCCOC(C)=O :: -2.48 kcal/mol
53. CC(=O)c1ccc(C)cc1 :: -4.7 kcal/mol
54. CCCCCC(=O)CC(C)=O :: -4.3 kcal/mol
55. Clc1c(Cl)c(Cl)c2c(c1Cl)Oc1ccccc1O2 :: -3.81 kcal/mol
56. CC(C)Cc1cnccn1 :: -5.04 kcal/mol
57. CCCN(CCC)c1c([N+](=O)[O-])cc(C(F)(F)F)cc1[N+](=O)[O-] :: -3.25 kcal/mol
58. Clc1ccc(Cl)c(Cl)c1 :: -1.16 kcal/mol
59. CC1=CC=C(C(C)C)CC1 :: 0.12 kcal/mol
60. O=C(O)c1cc([N+](=O)[O-])ccc1Cl :: -9.48 kcal/mol
61. Cn1cccc1 :: -2.89 kcal/mol
62. CC(=O)C(C)=O :: -4.3 kcal/mol
63. Nc1cccc(Cl)c1 :: -5.9 kcal/mol
64. CCCCO[N+](=O)[O-] :: -2.09 kcal/mol

---

A collection of compounds and their measured solvation free energy, 298 K
- protocol_text: solvent given as SMILES
- experimental_conditions: in O
measure_name: solvation free energy, 298 K

1. NCc1ccccc1 :: -6.34 kcal/mol
2. O=C(O)CCC(=O)O :: -12.6 kcal/mol
3. CCCCCCCCCCCCCC(=O)OC :: -1.14 kcal/mol
4. C1=CCC=C1 :: -0.22 kcal/mol
5. CCN(C)N=O :: -5.73 kcal/mol
6. C=C(C)C :: 1.17 kcal/mol
7. c1ccc2ccccc2c1 :: -2.37 kcal/mol
8. OCC(O)C(O)C(O)CO (stereo unspecified) :: -16.6 kcal/mol
9. CCc1ccc2ccccc2c1 :: -2.26 kcal/mol
10. COC(=O)C1CC1 :: -4.1 kcal/mol
11. c1c[nH]cn1 :: -9.63 kcal/mol

---

- protocol_text: solvent given as SMILES
- experimental_conditions: in CCCCCCCCO
Entries annotated with measured solvation free energy, 298 K
measure_name: solvation free energy, 298 K (kcal/mol)

1) CCc1ccccc1 :: -5.05
2) CCCCC(C)=O :: -5.02
3) CN1CCCC1 :: -4.97

---

- protocol_text: solvent given as SMILES
- experimental_conditions: in Cc1ccccc1C
measure_name: solvation free energy, 298 K (kcal/mol)

1. c1ccc2ccccc2c1 :: -7.85
2. Oc1ccccc1O :: -8.02
3. Cc1ccc(C)c(O)c1 :: -7.8

---

- protocol_text: solvent given as SMILES
- experimental_conditions: in CCCCCCCCO
Cut-off -4 kcal/mol on solvation free energy, 298 K: below means class 1, at or above means class 0.

1) CCI :: class 0
2) CC#N :: class 0
3) FC(Cl)C(F)(F)F (centres undefined) :: class 0
4) Cc1cc(C)c(C)cc1C :: class 1
5) CCC(C)O (centres undefined) :: class 1
6) CCC(C)C(=O)OC1CC(C)C=C2C=CC(C)C(CCC3CC(O)CC(=O)O3)C21 (centres undefined) :: class 1
7) O=c1[nH]c2ccccc2n1C1CCN(CCCC(c2ccc(F)cc2)c2ccc(F)cc2)CC1 :: class 1
8) Clc1ccc(Cl)c(Cl)c1Cl :: class 1
9) CI :: class 0
10) O=C(O)c1ccc(Cl)c([N+](=O)[O-])c1 :: class 1
11) C[N+](=O)[O-] :: class 0
12) Clc1cc(Cl)c(-c2c(Cl)cc(Cl)cc2Cl)c(Cl)c1 :: class 1
13) CC(Cl)(Cl)Cl :: class 0
14) BrCBr :: class 1
15) CC(C)CCC(C)C :: class 1
16) FC(F)C(F)(F)F :: class 0
17) ClC1=C(Cl)C2(Cl)C3C4OC4C(Cl)C3C1(Cl)C2(Cl)Cl (centres undefined) :: class 1
18) c1ccc(-c2ccccc2)cc1 :: class 1
19) CN(C)C=O :: class 1

---

- protocol_text: solvent given as SMILES
- experimental_conditions: in CCNC=O
This listing pairs compounds with measured solvation free energy, 298 K.
measure_name: solvation free energy, 298 K (kcal/mol)

1) CCO :: -4.9
2) CCCCCCC :: -3.25
3) CCCCCCCC :: -3.79
4) C=COC(C)=O :: -3.92
